assay: Stability of cannabinoid entourage and Vitamin E components of the powder concentrate by LCMSMS; format: physicochemical; conditions: powder stored at 21-25° C.; 9 days
Some compounds, each annotated with its measured Stability of Plant-Derived Cannabinoid Compounds in Powder Concentrate.
The reply should be a number in mg/g powder, with the unit left off.

CCCCCc1cc(O)c(C/C=C(\C)CCC=C(C)C)c(O)c1 [CBG, cannabigerol]: 1.09
C=C(C)[C@@H]1CCC(C)=C[C@H]1c1c(O)cc(CCCCC)c(C(=O)O)c1O [CBDA, cannabidiolic acid]: 0.410

Please turn your attention to the following entry.
// query Param item = CCCCCc1cc(O)c2c(c1)OC(C)(CCC=C(C)C)C=C2 (stereo not drawn) [CBC, cannabichromene] ; retrieve measured Stability of Plant-Derived Cannabinoid Compounds in Powder Concentrate.
// result 0.068

###

experiment: Stability of cannabinoid entourage and Vitamin E components of the powder concentrate by LCMSMS; type: physicochemical; conditions: powder stored at 21-25° C.; 23 days
Entries are sorted into classes by Stability of Plant-Derived Cannabinoid Compounds in Powder Concentrate as follows: low group (below 0.1 mg/g powder), middle group (0.1 mg/g powder to below 0.7 mg/g powder), high group (0.7 mg/g powder or more)

Some solved entries appear below for comparison.
CCCCCc1cc(O)c2c(c1)OC(C)(C)c1ccc(C)cc1-2: middle group
CCCCCc1cc(O)c2c(c1)OC1(C)CCC3C1C2C3(C)C (stereo not shown): low group
CCCCCc1cc(O)c(C/C=C(\C)CCC=C(C)C)c(O)c1: high group
CCCCCc1cc(O)c2c(c1)OC(C)(C)[C@@H]1CCC(C)=C[C@@H]21 [D9 THC, delta-9-tetrahydrocannabinol, reference compound]: high group
CCCCCc1cc(O)c2c(c1)OC(C)(CCC=C(C)C)C=C2 (stereo not shown): low group
CCCCCc1cc2c(c(O)c1C(=O)O)[C@@H]1C=C(C)CC[C@H]1C(C)(C)O2 [D9 THCA, delta-9-tetrahydrocannabinolic acid]: middle group
C=C(C)[C@@H]1CCC(C)=C[C@H]1c1c(O)cc(CCC)cc1O: low group
C=C(C)[C@@H]1CCC(C)=C[C@H]1c1c(O)cc(CCCCC)cc1O [CBD, cannabidiol, reference compound]: high group

Please find the next compound below.
// query GET /class?item= `C=C(C)[C@@H]1CCC(C)=C[C@H]1c1c(O)cc(CCCCC)c(C(=O)O)c1O`
// result middle group

###

assay: Stability of cannabinoid compounds and Vitamin E components in Beverage 2 (AB Red) by LCMSMS; format: physicochemical; conditions: stored at 8° C., 11 days
Some compounds, each annotated with its measured Stability of Plant-Derived Cannabinoid Compounds in AB Red.
// return the numeric value with its unit appended

CCCCCc1cc2c(c(O)c1C(=O)O)[C@@H]1C=C(C)CC[C@H]1C(C)(C)O2 [D9 THCA, delta-9-tetrahydrocannabinolic acid]: 1.35 µg/mL
C=C(C)[C@@H]1CCC(C)=C[C@H]1c1c(O)cc(CCCCC)c(C(=O)O)c1O: 1.65 µg/mL
C=C(C)[C@@H]1CCC(C)=C[C@H]1c1c(O)cc(CCC)cc1O: 0.195 µg/mL

Please turn your attention to the following entry.
// query Param item = `CCCCCc1cc(O)c2c(c1)OC(C)(C)c1ccc(C)cc1-2` ; retrieve measured Stability of Plant-Derived Cannabinoid Compounds in AB Red.
// result 2.73 µg/mL

###

assay: Stability of cannabinoid compounds and Vitamin E components in Beverage 1 (AB White) by LCMSMS; assay type: physicochemical; conditions: AB White stored at 8° C.; 210 days
Label key: Condition met means Stability of Plant-Derived Cannabinoid Compounds in AB White, 8° C. under 3 µg/mL; Condition not met means Stability of Plant-Derived Cannabinoid Compounds in AB White, 8° C. of 3 µg/mL or more.

CCCc1cc(O)c2c(c1)OC(C)(C)[C@@H]1CCC(C)=C[C@@H]21 [THCV, delta-9-tetrahydrocannabivarin]: Condition not met

// query API: query returns whether the compound falls strictly under 3 µg/mL in Stability of Plant-Derived Cannabinoid Compounds in AB White, 8° C.. Query: `CCCCCc1cc(O)c2c(c1)OC(C)(C)c1ccc(C)cc1-2`
// result Condition met

// query // repeat for `CCCCCc1cc(O)c(C/C=C(\C)CCC=C(C)C)c(O)c1` and report
// result Condition not met

// query // repeat for CCCCCc1cc(O)c2c(c1)OC(C)(C)[C@@H]1CCC(C)=C[C@@H]21 [D9 THC, delta-9-tetrahydrocannabinol, reference compound] and report
// result Condition not met

// query // repeat for CCCCCc1cc2c(c(O)c1C(=O)O)[C@@H]1C=C(C)CC[C@H]1C(C)(C)O2 [D9 THCA, delta-9-tetrahydrocannabinolic acid] and report
// result Condition met

// query // repeat for `C=C(C)[C@@H]1CCC(C)=C[C@H]1c1c(O)cc(CCC)cc1O` and report
// result Condition met

// query // repeat for CCCCCc1cc(O)c2c(c1)OC1(C)CCC3C1C2C3(C)C (stereo not shown) and report
// result Condition met

###

assay: Stability of cannabinoid compounds and Vitamin E components in Beverage 1 (AB White) by LCMSMS; assay type: physicochemical; details: AB White stored at 8° C.; 16 days
measurement.kind: Stability of Plant-Derived Cannabinoid Compounds in AB White, 8° C.

// query Param item = `C=C(C)[C@@H]1CCC(C)=C[C@H]1c1c(O)cc(CCC)cc1O` ; retrieve measured Stability of Plant-Derived Cannabinoid Compounds in AB White, 8° C..
// result 0.148 µg/mL

// query // repeat for `CCCCCc1cc(O)c2c(c1)OC(C)(C)c1ccc(C)cc1-2` and report
// result 2.77 µg/mL

// query // repeat for `C=C(C)[C@@H]1CCC(C)=C[C@H]1c1c(O)cc(CCCCC)c(C(=O)O)c1O` and report
// result 1.73 µg/mL

// query // repeat for `CCCCCc1cc(O)c(C/C=C(\C)CCC=C(C)C)c(O)c1` and report
// result 4.84 µg/mL

###

assay: Stability of cannabinoid compounds and Vitamin E components in Beverage 2 (AB Red) by LCMSMS; format: physicochemical; conditions: stored at 8° C., 150 days
Some molecules, each annotated with its measured Stability of Plant-Derived Cannabinoid Compounds in AB Red.
The reply should be a number in µg/mL, with the unit left off.

Worked examples, 3 molecules total:
C=C(C)[C@@H]1CCC(C)=C[C@H]1c1c(O)cc(CCCCC)c(C(=O)O)c1O [CBDA, cannabidiolic acid]: 1.66
CCCCCc1cc(O)c2c(c1)OC(C)(C)[C@@H]1CCC(C)=C[C@@H]21 [D9 THC, delta-9-tetrahydrocannabinol, reference compound]: 12.8
CCCCCc1cc(O)c2c(c1)OC1(C)CCC3C1C2C3(C)C (stereo not shown) [CBL, cannabicyclol]: 0.501

Please turn your attention to the following entry.
// query Param item = CCCCCc1cc2c(c(O)c1C(=O)O)[C@@H]1C=C(C)CC[C@H]1C(C)(C)O2 [D9 THCA, delta-9-tetrahydrocannabinolic acid] ; retrieve measured Stability of Plant-Derived Cannabinoid Compounds in AB Red.
// result 1.34

###

assay: Stability of cannabinoid entourage and Vitamin E components of the powder concentrate by LCMSMS; type: physicochemical; details: powder stored at 21-25° C.; 3 days
measurement.kind: Stability of Plant-Derived Cannabinoid Compounds in Powder Concentrate (mg/g powder)
The reply should be a number in mg/g powder, with the unit left off.

Worked examples, 6 molecules total:
CCCCCc1cc(O)c2c(c1)OC(C)(C)[C@@H]1CCC(C)=C[C@@H]21 [D9 THC, delta-9-tetrahydrocannabinol, reference compound]: 2.63
CCCCCc1cc(O)c2c(c1)OC(C)(CCC=C(C)C)C=C2 (stereo not shown) [CBC, cannabichromene]: 0.073
C=C(C)[C@@H]1CCC(C)=C[C@H]1c1c(O)cc(CCCCC)cc1O [CBD, cannabidiol, reference compound]: 5.8
CCCCCc1cc(O)c2c(c1)OC(C)(C)c1ccc(C)cc1-2 [CBN, cannabinol]: 0.474
CCCc1cc(O)c2c(c1)OC(C)(C)[C@@H]1CCC(C)=C[C@@H]21 [THCV, delta-9-tetrahydrocannabivarin]: 0.698
CCCCCc1cc2c(c(O)c1C(=O)O)[C@@H]1C=C(C)CC[C@H]1C(C)(C)O2 [D9 THCA, delta-9-tetrahydrocannabinolic acid]: 0.150

// query Param item = CCCCCc1cc(O)c(C/C=C(\C)CCC=C(C)C)c(O)c1 [CBG, cannabigerol] ; retrieve measured Stability of Plant-Derived Cannabinoid Compounds in Powder Concentrate.
// result 1.09

// query // repeat for C=C(C)[C@@H]1CCC(C)=C[C@H]1c1c(O)cc(CCCCC)c(C(=O)O)c1O [CBDA, cannabidiolic acid] and report
// result 0.406

// query // repeat for C=C(C)[C@@H]1CCC(C)=C[C@H]1c1c(O)cc(CCC)cc1O [CBDV, cannabidivarin] and report
// result 0.048

// query // repeat for CCCCCc1cc(O)c2c(c1)OC1(C)CCC3C1C2C3(C)C (stereo not shown) [CBL, cannabicyclol] and report
// result 0.050
